Listing: normalized growth of selected compounds
Experiment: chemical genetic growth profiling, strain panel (AID 1159580);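 further: tested at 20 µM; growth read once vehicle control cultures reached saturation at 30 °C; 1 = growth at the plate median or of vehicle wells; lower values mean less growth of the strain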
Details: S. cerevisiae deletion strains, growth OD, locus YER167W, strain BCK2, stronger effect = lower value
Screen size: about 5,500 compounds; about 2,000 (36%) were called active. About 18% were inconclusive and are not listed. The list shows a part of the results.

Completed entries (count: 5):
* COc1ccc([C@@H]2CC(=O)c3c(O)cc(O[C@@H]4O[C@H](CO[C@H]5O[C@@H](C)[C@H](O)[C@@H](O)[C@H]5O)[C@@H](O)[C@H](O)[C@H]4O)cc3O2)cc1O | 0.991 (inactive)
* CC(C)CCCC(C)[C@H]1CCC2C3CC=C4CC(=O)CC[C@]4(C)C3CC[C@@]21C (some centres undefined) | 0.993 (inactive)
* Cc1cc(=O)[nH]c(=S)[nH]1 | 0.996 (inactive)
* OC[C@H]1O[C@@H](O[C@@H]2[C@@H](CO)O[C@](O)(CO)[C@H]2O)[C@H](O)[C@@H](O)[C@H]1O | 0.995 (inactive)
* C=C(C)C1(O)OC(=O)C=C1OC (centres undefined) | 0.978 (inactive)

# input What does the record list as normalized growth for O=C(NCO)c1cccnc1 ?
# output 0.982 (inactive)

# input CCCc1c(OCCCCc2nn[nH]n2)ccc(C(C)=O)c1O ?
# output 1.01 (inactive)

# input Nc1ccc(S(=O)(=O)NC(=O)c2ccccc2)cc1 ?
# output 1 (inactive)

# input COC(=O)c1c(OC)cc2c(c1C)Oc1c(Cl)c(OC(C)=O)c(Cl)c(C)c1C(=O)O2 ?
# output 1.02 (inactive)

# input OC[C@H]1O[C@@H](O[C@H]2[C@H](O)[C@@H](O)[C@@H](O)O[C@@H]2CO)[C@H](O)[C@@H](O)[C@@H]1O ?
# output 1.01 (inactive)

# input C=C1c2cccc(O)c2C(O)=C2C(=O)[C@]3(O)C(O)=C(C(N)=O)C(=O)[C@@H](N(C)C)[C@@H]3[C@@H](O)[C@H]12 ?
# output 0.992 (inactive)

# input CCCOc1ccc2nc(NC(=O)OC)[nH]c2c1 ?
# output 0.988 (inactive)

# input CS(=O)(=O)c1ccc([C@@H](O)[C@@H](CO)NC(=O)C(Cl)Cl)cc1 ?
# output 0.985 (inactive)

###

Test: chemical genetic growth profiling, strain panel (AID 1159580);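 further: tested at 20 µM; growth read once vehicle control cultures reached saturation at 30 °C; 1 = growth at the plate median or of vehicle wells; lower values mean less growth of the strain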
Details: S. cerevisiae deletion strains, growth OD, locus YMR205C, strain PFK2, stronger effect = lower value
Among all 5,500 compounds or so, about 2,000 (36%) were called active. Roughly 18% stayed inconclusive and do not appear here. The list shows a part of the results.
Listing: normalized growth of selected compounds
Answer with a bare number; do not write a unit.

# input What does the record list as normalized growth for COC(=O)c1c(OC)cc2c(c1C)Oc1c(Cl)c(O)c(Cl)c(C)c1C(=O)O2 ?
# output 0.989

# input N[C@@H](CCC(=O)N[C@@H](CS)C(=O)NCC(=O)O)C(=O)O ?
# output 0.993

# input C[C@H](CCC(=O)O)[C@H]1CCC2C3C(=O)CC4CC(=O)CC[C@]4(C)C3CC(=O)[C@@]21C (some centres undefined) ?
# output 0.953

# input Nc1ccc(S(=O)(=O)NC(=O)c2ccccc2)cc1 ?
# output 1

# input C[C@H]1c2cccc(O)c2C(O)=C2C(=O)[C@]3(O)C(O)=C(C(N)=O)C(=O)[C@@H](N(C)C)[C@@H]3[C@@H](O)[C@@H]21 ?
# output 0.992

# input CN[C@@H]1[C@H](O)[C@H](NC)[C@H]2O[C@@]3(O)C(=O)C[C@@H](C)O[C@H]3O[C@@H]2[C@H]1O ?
# output 1

# input COC(=O)c1c(OC)cc2c(c1C)Oc1c(Cl)c(OC(C)=O)c(Cl)c(C)c1C(=O)O2 ?
# output 0.981

# input CCCN(CCC)S(=O)(=O)c1ccc(C(=O)O)cc1 ?
# output 0.984

# input CN(C)[C@@H]1C(=O)C(C(N)=O)=C(O)[C@@]2(O)C(=O)C3=C(O)c4c(O)cccc4[C@@](C)(O)[C@H]3[C@H](O)[C@@H]12 ?
# output 1.04
